Values from PubChem BioAssay AID1259422

Assay: TEAD-YAP interaction inhibition, primary screen, TEAD-YAP interaction inhibitor project, luminescence, HEK-TIYL cells (AID 1259422);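 also: 0% = median of test compound wells and 100% = reference inhibitor wells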
Details: TEAD-Gal4/YAP UAS-luciferase luminescence, at 9.12 µM, stronger effect = higher value
About 9,300 (1.5%) of roughly 640,000 compounds were called active. This is one part of a sample in which actives are shown more often than they occur.
As shown below, each of these molecules has a reported inhibition value.
PROPERTY MEASURED: inhibition (%)

# MOLECULE, PROPERTY MEASURED, VALUE MEASURED
records = [
    ("CCc1ccc(OCCOCCNCCN)cc1", "inhibition", 13),
    ("COC(=O)c1ccc(C)c(NC(=O)Nc2cccc(Cl)c2)c1", "inhibition", 7.6),
    ("N/C(=N\\OC(=O)CCCOc1ccc(Cl)cc1Cl)c1nonc1N", "inhibition", -6.56),
    ("O=C1N=c2ccccc2=C1c1[nH]c(=S)n(-c2ccccc2)c1O", "inhibition", -4.63),
    ("CC(=O)Oc1c(C)cc(C)c2ccc(=O)[nH]c12", "inhibition", -7.29),
    ("Cc1cnc(Nc2ccncc2)nc1Nc1ccc(Oc2ccccc2)cc1", "inhibition", 45.7),
    ("Cc1cccc(N(CC(O)c2ccccc2)S(=O)(=O)c2ccc3c(c2)OCCO3)c1 (stereo unspecified)", "inhibition", 2.94),
    ("COCCNC(=O)Cn1cnc2c(nnn2-c2ccc(Cl)cc2)c1=O", "inhibition", 2.42),
    ("COc1ccc(N2CCN(C(CNC(=O)c3cccs3)c3ccc4c(c3)OCO4)CC2)cc1 (stereo unspecified)", "inhibition", -22.3),
    ("Cc1cnc(Nc2ccc3ncccc3c2)nc1Nc1ccccc1", "inhibition", 29.6),
    ("CC1CN(Cc2cccc3ncccc23)Cc2ccccc2O1 (stereo unspecified)", "inhibition", -3.29),
]

----------
Assay: TEAD-YAP interaction inhibition, primary screen, TEAD-YAP interaction inhibitor project, luminescence, HEK-TIYL cells (AID 1259422);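 also: 0% = median of test compound wells and 100% = reference inhibitor wells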
Details: TEAD-Gal4/YAP UAS-luciferase luminescence, at 9.12 µM
The whole screen tested about 640,000 compounds, of which about 9,300 (1.5%) were called active. No stated cut-off is given here; in the data, active means inhibition above about 32%; inactive means the rest. Many of the other results were omitted from the sample, so actives are more common in it than they were.
Outcomes: yes for active, no for inactive

# COMPOUND, CLASS
records = [
    ("O=C(COc1ccccc1)N1CCN(c2ccccc2F)CC1", "no"),
    ("CC(=O)Oc1cc(C(=O)Nc2cccc(C#N)c2)cc(C(=O)Nc2cccc(C#N)c2)c1", "no"),
    ("O=C(c1cc(COc2ccc(F)cc2Cl)on1)N1C[C@@H]2CCC[C@H]1C2", "no"),
    ("COc1ccccc1NC(CNS(=O)(=O)c1ccc(Cl)cc1)c1ccccc1 (configuration not stated)", "no"),
    ("COc1ccc(C(c2sc3ncnn3c2O)N2CC(C)OC(C)C2)cc1 (configuration not stated)", "no"),
    ("S=c1[nH]c(-c2ccc(Cl)cc2)cn1-c1cccc(Cl)c1", "no"),
    ("CS(=O)(=O)N(CC(=O)NCCC1=CCCCC1)c1ccc(OCc2ccccc2)cc1", "no"),
    ("COC(=O)c1cnc(N(C)C2CCCCC2)c2ccccc12", "no"),
    ("CC(=O)Oc1cccc(C(=O)Nc2ccccc2Br)c1", "no"),
    ("CCCCN(C)Cc1c(O)c(Cl)cc2c(C)cc(=O)oc12", "no"),
    ("CC(=O)Nc1ccc2nc(SCC(=O)Nc3ccccc3F)sc2c1", "no"),
    ("O=C(c1cccc2nc3ccccc3nc12)N1CCCCCC1", "no"),
    ("CC(=O)N(Cc1cccnc1)Cc1cc2cc(C)c(C)cc2nc1Cl", "no"),
    ("CC(=O)c1ccc(NC(=O)CN2C(=O)C3C4CCC(C4)C3C2=O)cc1 (configuration not stated)", "no"),
    ("CCOC(=O)Nc1cc(=O)c2cc(C)ccc2o1", "yes"),
    ("CCOC(=O)C1=C(C)N=c2s/c(=C/c3cc(Br)c(N4CCOCC4)o3)c(=O)n2C1c1ccc(OC)cc1 (configuration not stated)", "no"),
    ("CCOc1cc(C(=O)OCc2cc(C(C)=O)ccc2OC)cc(OCC)c1OCC", "no"),
    ("CCC(=O)N1c2ccccc2C2=C(SC(C(=O)OC)=C(C(=O)OC)C23SC(C(=O)OC)=C(C(=O)OC)S3)C1(C)C", "no"),
    ("O=c1oc2ccccc2cc1-c1nnc(-c2ccccc2)o1", "no"),
    ("Cc1ccc(S(=O)(=O)n2nc(C#N)c(C#N)c2N)cc1", "no"),
    ("O=S(=O)(Nc1cccc2cccnc12)c1ccc(S(=O)(=O)N2CCCCC2)cc1", "no"),
    ("CN(C)C(=O)c1cc(CNCCCc2ccccc2)cc(NC(=O)c2ccccn2)c1", "no"),
]
